Tested on: HEK293T (UBE3A T485A transfected, BAR Wnt reporter)
Assay: Renilla luciferase signal (cell health) relative to plate median (fold (linear ratio)); higher = higher Renilla signal
Conditions: concentration: 100 uM; 24 h
Over roughly 1,100 compounds, “Renilla luciferase signal (cell health) relative to plate median” has its median near 0.97; the highest 2% begin near 1.6. The sample holds the highest values, similar compounds and a random draw of the others, so the mix is not that of the screen.
READOUT_TYPE: Renilla luciferase signal
Form rule: numeric answer, no unit written next to it.

Renilla luciferase signal in this record for CCCCOC(=O)C(C)Oc1ccc(Oc2ccc(C(F)(F)F)cn2)cc1 (stereo unspecified) [Fluazifop-butyl] : 1.81

Renilla luciferase signal in this record for Sc1nc2ccccc2s1 [2-Mercaptobenzothiazole] : 0.92

Renilla luciferase signal in this record for CN(Cc1cnc2nc(N)nc(N)c2n1)c1ccc(C(=O)N[C@@H](CCC(=O)O)C(=O)O)cc1 [Methotrexate] : 0.087

Renilla luciferase signal in this record for O=C(O)c1ccccc1C(c1ccc(O)cc1)c1ccc(O)cc1 [Phenolphthalin] : 0.886

Renilla luciferase signal in this record for CCOC(=O)C(C)Oc1ccc(Oc2nc3ccc(Cl)cc3o2)cc1 (stereo unspecified) [Fenoxaprop-ethyl] : 1.78

Renilla luciferase signal in this record for CCCCCCCCCCCCCCCCOS(=O)(=O)[O-].[Na+] [Sodium hexyldecyl sulfate] : 0.434

Renilla luciferase signal in this record for CCOCCOCCOCCO [2-[2-(2-Ethoxyethoxy)ethoxy]ethanol] : 0.954

Renilla luciferase signal in this record for CCOCCO [2-Ethoxyethanol] : 1.66

Renilla luciferase signal in this record for COCCO [2-Methoxyethanol] : 1.53

Renilla luciferase signal in this record for `[Cl-].[Li+]` : 1.14

Renilla luciferase signal in this record for CCCCCCCCCCCCCCO [1-Tetradecanol] : 0.92

Renilla luciferase signal in this record for Nc1cccc(N)c1 [1,3-Benzenediamine] : 1.74

Renilla luciferase signal in this record for CCOc1ccc2c(c1)C(C)=CC(C)(C)N2 [Ethoxyquin] : 0.0339

Renilla luciferase signal in this record for `COc1cc(C(C)C)c2c(c1)S(=O)(=O)N(COc1cc(=O)n3cccc(OCCN4CCCCC4)c3n1)C2=O` : 0.497

Renilla luciferase signal in this record for `CN(C)C(=O)C1(N2CCCCC2)CCN(CC[C@@]2(c3ccc(Cl)c(Cl)c3)CN(C(=O)c3ccccc3)CCO2)CC1` : 0.0169

Renilla luciferase signal in this record for Nc1ccc2c(c1)C(=O)c1ccccc1C2=O [2-Aminoanthraquinone] : 0.621

Renilla luciferase signal in this record for CNC(CC(=O)O)C(=O)O (stereo unspecified) : 1.9

Renilla luciferase signal in this record for O=C(Nc1ccc(Cl)cc1)Nc1ccc(Cl)c(Cl)c1 [Triclocarban] : 0.021

Renilla luciferase signal in this record for C[C@]12C[C@H](O)[C@H]3[C@@H](CCC4=CC(=O)CC[C@@]43C)[C@@H]1CC[C@@H]2C(=O)CO [Corticosterone] : 0.636

Renilla luciferase signal in this record for OCCC(F)(F)C(F)(F)C(F)(F)C(F)(F)C(F)(F)C(F)(F)C(F)(F)C(F)(F)F [1,1,2,2-Tetrahydroperfluoro-1-decanol] : 1.27

Renilla luciferase signal in this record for CCOC(=O)CCC(=O)OCC [Diethyl butanedioate] : 1.25

Renilla luciferase signal in this record for CCCCN1C(=O)[C@@H]([C@H](O)C2CCCCC2)NC(=O)C12CCN(Cc1ccc(Oc3ccc(C(=O)O)cc3)cc1)CC2.Cl [Aplaviroc hydrochloride] : 2.23

Renilla luciferase signal in this record for CCNc1nc(N)nc(Cl)n1 [Deisopropylatrazine] : 0.243

Renilla luciferase signal in this record for O=C([O-])c1[nH]n(-c2ccc(S(=O)(=O)[O-])cc2)c(=O)c1/N=N/c1ccc(S(=O)(=O)[O-])cc1.[Na+].[Na+].[Na+] [FD&C Yellow 5] : 0.999

Renilla luciferase signal in this record for CCN(CC)C(=O)c1cc(S(=O)(=O)Cc2ccccc2)c(N2CCC(c3ccccc3)CC2)cc1N(CC)CCN(C)C.O=C(O)C(F)(F)F [HMR1171 trifluoroacetate (1:1)] : 0.249

Renilla luciferase signal in this record for `CCN(CC)CCNc1ccc(CNC=O)c2sc3ccc(OC)cc3c(=O)c12` : 0.0173

Renilla luciferase signal in this record for CCCCOC(=O)c1ccccc1 [Butyl benzoate] : 1.1

Renilla luciferase signal in this record for `[Cl-].[K+]` : 1.88

Renilla luciferase signal in this record for CCOC(=O)C(C)(C)Oc1ccc(Cl)cc1 [Clofibrate] : 1.38

Renilla luciferase signal in this record for COCCOCCOC [Bis(2-methoxyethyl) ether] : 1.31

Renilla luciferase signal in this record for CCOCCOCCO [2-(2-Ethoxyethoxy)ethanol] : 1.17
